Target: UniProt:P30518
Test: Cellular in vitro assay for determining vasopressin receptor activity (V2, CRE-luciferase)
Settings: CHO cell line transfected with the human V2 receptor; [Arg8]-vasopressin at EC50 concentration; read-out: IC50 hV2
Structures can show the parent of a compound that is named as a salt.
QUANTITY: IC50 (nM)

1: COc1ccccc1-n1nc(Cn2nc(-c3ccc(Cl)cc3)n(C[C@H](O)C(F)(F)F)c2=O)nc1COC(N)=O
2: CN1C(=O)CCC1c1nc(Cn2nc(-c3ccc(Cl)cc3)n(C[C@H](O)C(F)(F)F)c2=O)nn1CCC(F)(F)F (single isomer, unassigned) [Example 132]
Among 1 and 2 , which shows a numerically higher IC50 result? // return label of chosen record
2
(2: 1730 nM, 1: 3.11 nM)

1: C[C@H](OC(N)=O)c1nc(Cn2nc(-c3ccc(Cl)cc3)n(C[C@H](O)C(F)(F)F)c2=O)nn1-c1ncccc1Cl
2: C[C@@H](OC(N)=O)c1nc(Cn2nc(-c3ccc(Cl)cc3)n(C[C@H](O)C(F)(F)F)c2=O)nn1-c1ccc(Cl)cn1
3: CC(N)c1nc(Cn2nc(-c3ccc(Cl)cc3)n(C[C@H](O)C(F)(F)F)c2=O)nn1-c1ccccc1Cl (single isomer, unassigned) [Example 62]
4: NC(CO)c1nc(Cn2nc(-c3ccc(Cl)cc3)n(C[C@H](O)C(F)(F)F)c2=O)nn1-c1ccccc1Cl (mixture of isomers) [Example 81, hydrochloride]
Ascending by IC50, please. Please list the labels according to the requested order.
4, 3, 1, 2

###

Molecular target: human V1a receptor (Homo sapiens, UniProt P37288)
Sequence (P37288 whole entry): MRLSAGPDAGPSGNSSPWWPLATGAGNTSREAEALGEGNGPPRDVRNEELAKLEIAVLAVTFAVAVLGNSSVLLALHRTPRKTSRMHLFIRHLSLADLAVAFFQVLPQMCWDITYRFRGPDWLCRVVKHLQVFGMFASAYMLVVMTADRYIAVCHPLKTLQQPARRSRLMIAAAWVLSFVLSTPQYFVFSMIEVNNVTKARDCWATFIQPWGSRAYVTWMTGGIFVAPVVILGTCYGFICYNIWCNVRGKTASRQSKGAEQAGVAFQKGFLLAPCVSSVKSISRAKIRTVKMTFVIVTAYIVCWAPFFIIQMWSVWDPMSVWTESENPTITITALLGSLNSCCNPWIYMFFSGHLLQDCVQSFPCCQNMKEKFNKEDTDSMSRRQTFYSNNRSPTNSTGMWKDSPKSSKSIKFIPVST
Test: Cellular in vitro assay for determining vasopressin receptor activity (V1a, aequorin luminescence)
Details: CHO cell line transfected with the human V1a receptor; [Arg8]-vasopressin at EC50 concentration; read-out: IC50 hV1a
pIC50: −log10 of the molar value.
QUANTITY: pIC50

MOLECULE | pIC50
CS(=O)(=O)NC1(c2nc(Cn3nc(-c4ccc(Cl)cc4)n(C[C@H](O)C(F)(F)F)c3=O)nn2-c2ccccc2Cl)CC1 | 8.96

a: NC(=O)OCc1nc(Cn2nc(-c3ccc(Cl)cc3)n(C[C@H](OC(N)=O)C(F)(F)F)c2=O)nn1-c1cccc(Cl)c1
b: CS(=O)(=O)NC(CO)c1nc(Cn2nc(-c3ccc(Cl)cc3)n(C[C@H](O)C(F)(F)F)c2=O)nn1-c1ccccc1Cl (mixture of isomers) [Example 85]
Between a and b , which one shows the larger pIC50 value? The response must carry the label of the picked entry.
b

###

Target: human V1a receptor (Homo sapiens)
Assay: Cellular in vitro assay for determining vasopressin receptor activity (V1a, aequorin luminescence)
Conditions: CHO cell line transfected with the human V1a receptor; [Arg8]-vasopressin at EC50 concentration; read-out: IC50 hV1a
pIC50: −log10 of the molar value.
QUANTITY: pIC50

MOLECULE | TARGET | pIC50
C[C@@H](OC(N)=O)c1nc(Cn2nc(-c3ccc(Cl)cc3)n(C[C@H](O)C(F)(F)F)c2=O)nn1-c1ccc(F)cc1Cl [Example 4] | human V1a receptor (Homo sapiens) | 8.84

I: CS(=O)(=O)NC(CO)c1nc(Cn2nc(-c3ccc(Cl)cc3)n(C[C@H](O)C(F)(F)F)c2=O)nn1-c1ccccc1Cl (single isomer, unassigned) [Example 87]
II: CCNC(=O)OCc1nc(Cn2nc(-c3ccc(Cl)cc3)n(C[C@H](OC(=O)NCC)C(F)(F)F)c2=O)nn1-c1ccccc1C(F)(F)F [Example 50]
Please indicate which item has the smaller measured pIC50: I versus II Mark your answer with the label of the selected entry.
I

###

Biological target: human V2 receptor (Homo sapiens, UniProt P30518)
Sequence (P30518 whole entry): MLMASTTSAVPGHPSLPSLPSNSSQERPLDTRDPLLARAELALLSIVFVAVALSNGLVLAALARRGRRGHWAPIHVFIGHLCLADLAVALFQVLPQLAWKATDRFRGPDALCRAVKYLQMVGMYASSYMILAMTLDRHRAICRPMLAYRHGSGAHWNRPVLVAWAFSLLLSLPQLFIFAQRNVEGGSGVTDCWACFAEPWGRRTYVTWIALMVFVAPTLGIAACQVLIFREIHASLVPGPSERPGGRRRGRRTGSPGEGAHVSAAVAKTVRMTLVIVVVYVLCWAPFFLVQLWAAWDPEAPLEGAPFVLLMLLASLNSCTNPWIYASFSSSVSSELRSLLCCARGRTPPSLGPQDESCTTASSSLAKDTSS
Assay: Cellular in vitro assay for determining vasopressin receptor activity (V2, CRE-luciferase)
Settings: CHO cell line transfected with the human V2 receptor; [Arg8]-vasopressin at EC50 concentration; read-out: IC50 hV2
pIC50: −log10 of the molar value. Where a name gives a salt, the structure may show the parent alone.
QUANTITY: pIC50

1: CC(N)c1nc(Cn2nc(-c3ccc(Cl)cc3)n(C[C@H](O)C(F)(F)F)c2=O)nn1-c1ccccc1Cl (single isomer, unassigned) [Example 61]
2: C[C@@H](OC(N)=O)c1nc(Cn2nc(-c3ccc(Cl)cc3)n(C[C@H](O)C(F)(F)F)c2=O)nn1-c1ccccc1OC(F)(F)F [Example 8]
3: CC(NS(C)(=O)=O)c1nc(Cn2nc(-c3ccc(Cl)cc3)n(C[C@H](O)C(F)(F)F)c2=O)nn1-c1ccccc1Cl (single isomer, unassigned) [Example 68]
# rank_down: sort by pIC50, max first Form field (ranking): labels in requested order.
1, 3, 2
(1: 8.55, 3: 8.35, 2: 6.79)

1: CC(N)c1nc(Cn2nc(-c3ccc(Cl)cc3)n(C[C@H](O)C(F)(F)F)c2=O)nn1-c1cccc(F)c1 (mixture of isomers) [Example 53, trifluoroacetate]
2: O=C(NC(CO)c1nc(Cn2nc(-c3ccc(Cl)cc3)n(C[C@H](O)C(F)(F)F)c2=O)nn1-c1ccccc1Cl)C(F)(F)F (mixture of isomers) [Example 95]
Of 1 and 2 , which carries the smaller reported pIC50 figure? Please reply using the label of the selected record.
2
(2: 7.74, 1: 8.28)

###

Target: human V1a receptor (Homo sapiens, UniProt P37288)
Construct: expressed in transfected cells; host or cells: CHO K1 (ATCC), also stably transfected with a modified aequorin
Assay: Cellular in vitro assay for determining vasopressin receptor activity (V1a, aequorin luminescence)
Format: cell-based
Details: selectivity ratio of IC50 hV2 to IC50 hV1a
Structures can show the parent of a compound that is named as a salt.
QUANTITY: ratio IC50 hV2/hV1a

The examples below pair each entry with its known result.
MOLECULE | ratio IC50 hV2/hV1a
CC(N)c1nc(Cn2nc(-c3ccc(Cl)cc3)n(C[C@H](O)C(F)(F)F)c2=O)nn1-c1ncccn1 (mixture of isomers) [Example 128, hydrochloride] | 22.8
O=C1NC(c2nc(Cn3nc(-c4ccc(Cl)cc4)n(C[C@H](O)C(F)(F)F)c3=O)nn2-c2ncccc2OC(F)(F)F)CO1 (single isomer, unassigned) [Example 119] | 15.4
CC(N)c1nc(Cn2nc(-c3ccc(Cl)cc3)n(C[C@H](O)C(F)(F)F)c2=O)nn1-c1ccccc1Cl (mixture of isomers) [Example 60, trifluoroacetate] | 4.3

1: COCCNC(=O)OCc1nc(Cn2nc(-c3ccc(Cl)cc3)n(C[C@H](O)C(F)(F)F)c2=O)nn1-c1ccccc1Cl [Example 48]
2: C[C@@H](OC(N)=O)c1nc(Cn2nc(-c3ccc(Cl)cc3)n(C[C@H](O)C(F)(F)F)c2=O)nn1-c1ccccc1OC(F)F [Example 6]
Between 1 and 2 , which one shows the smaller ratio IC50 hV2/hV1a number? // output: label of the selected item
1

###

Target: human V2 receptor (Homo sapiens)
Test: Cellular in vitro assay for determining vasopressin receptor activity (V2, CRE-luciferase)
Settings: CHO cell line transfected with the human V2 receptor; [Arg8]-vasopressin at EC50 concentration; read-out: IC50 hV2
QUANTITY: IC50 (nM)

Below, each entry is followed by its recorded IC50 result.
MOLECULE | VALUE
CC(=O)NC(CO)c1nc(Cn2nc(-c3ccc(Cl)cc3)n(C[C@H](O)C(F)(F)F)c2=O)nn1-c1ncccc1OC(F)(F)F (single isomer, unassigned) [Example 122] | 280
O=C1CC[C@@H](c2nc(Cn3nc(-c4ccc(Cl)cc4)n(C[C@H](O)C(F)(F)F)c3=O)nn2-c2cnccc2Cl)N1 | 34.5
CC(C)(C)OCC(NS(C)(=O)=O)c1nc(Cn2nc(-c3ccc(Cl)cc3)n(C[C@H](O)C(F)(F)F)c2=O)nn1-c1ccccc1Cl (mixture of isomers) [Example 82] | 48
CC(N)c1nc(Cn2nc(-c3ccc(Cl)cc3)n(C[C@H](O)C(F)(F)F)c2=O)nn1-c1ncccc1Cl (mixture of isomers) | 18.5
C[C@@H](OC(N)=O)c1nc(Cn2nc(-c3ccc(Cl)cc3)n(C[C@H](O)C(F)(F)F)c2=O)nn1-c1ccccc1OC(F)F | 20.7

P: C[C@H](OC(N)=O)c1nc(Cn2nc(-c3ccc(Cl)cc3)n(C[C@H](O)C(F)(F)F)c2=O)nn1-c1ccc(Cl)cn1
Q: CN1C(=O)CCC1c1nc(Cn2nc(-c3ccc(Cl)cc3)n(C[C@H](O)C(F)(F)F)c2=O)nn1-c1ccccc1Cl (single isomer, unassigned) [Example 72]
// task: argmin of IC50 over [ P , Q ] Identify your selection by its label.
Q

###

Target: human V2 receptor (Homo sapiens)
Assay: Cellular in vitro assay for determining vasopressin receptor activity (V2, CRE-luciferase)
Conditions: CHO cell line transfected with the human V2 receptor; [Arg8]-vasopressin at EC50 concentration; read-out: IC50 hV2
QUANTITY: IC50 (nM)

Below: 3 molecules and their reported IC50.
MOLECULE | TARGET | IC50 [nM]
CC(C)(C)OCC(N)c1nc(Cn2nc(-c3ccc(Cl)cc3)n(C[C@H](O)C(F)(F)F)c2=O)nn1-c1ccccc1Cl (mixture of isomers) [Example 80] | human V2 receptor (Homo sapiens) | 19
O=C1NC(c2nc(Cn3nc(-c4ccc(Cl)cc4)n(C[C@H](O)C(F)(F)F)c3=O)nn2-c2ncccc2Cl)CO1 (single isomer, unassigned) [Example 114] | human V2 receptor (Homo sapiens) | 525
C[C@@H](OC(N)=O)c1nc(Cn2nc(-c3ccc(Cl)cc3)n(C[C@H](OC(N)=O)C(F)(F)F)c2=O)nn1-c1ccccc1Cl [Example 32] | human V2 receptor (Homo sapiens) | 10.3

1: C[C@H](OC(N)=O)c1nc(Cn2nc(-c3ccc(Cl)cc3)n(C[C@H](O)C(F)(F)F)c2=O)nn1-c1ccccn1 [Example 10]
2: C[C@@H](OC(N)=O)c1nc(Cn2nc(-c3ccc(Cl)cc3)n(C[C@H](O)C(F)(F)F)c2=O)nn1-c1ncccc1OC(F)(F)F [Example 23]
Which item exceeds the other in IC50, 1 or 2 ? Identify your pick by its label.
2
(2: 285 nM, 1: 105 nM)
